Listing of entries alongside the reported cytotoxic effect, CEM.
System: human CEM T4 lymphocytes
Assay: Cytotoxic effect on CEM T4 lymphocytes
Type: cell-based
Set-up: unit not given beside the values
Conditions: Tables 5 and 7, CEM cells
Just the number, please, no unit attached.

Examples from the recorded data:
| compound | experimental target | cytotoxic effect, CEM |
| --- | --- | --- |
| Cc1cn(C2OC(CO)C=C2SSc2ccc([N+](=O)[O-])cc2)c(=O)[nH]c1=O (centres unmarked) | human CEM T4 lymphocytes | 31 |
| O=c1ccn([C@@H]2O[C@H](CO)C=C2SSc2ccc([N+](=O)[O-])cc2)c(=O)[nH]1 | human CEM T4 lymphocytes | 41 |
| Cc1cn([C@H]2C[C@H](SSC(Cl)(Cl)Cl)[C@@H](CO)O2)c(=O)[nH]c1=O | human CEM T4 lymphocytes | 121 |
| C=CCSS[C@H]1C[C@H](n2cc(C)c(=O)[nH]c2=O)O[C@@H]1CO [Compound 20, 3′-deoxythymidin-3′-yl allyl disulfide] | human CEM T4 lymphocytes | 128 |

Here's the next entry for you.
GET cytotoxic effect, CEM where system = human CEM T4 lymphocytes and item = Cc1cn([C@H]2C[C@H](SSc3ccccc3[N+](=O)[O-])[C@@H](CO)O2)c(=O)[nH]c1=O
32

###

System: HeLa cells
Test: Cytotoxic effect on HeLa cells
Type: cell-based
Set-up: unit not given beside the values
Conditions: Tables 5 and 7, HeLa cells
Listed below: cytotoxic effect, HeLa values for each entry.
Give the figure only, with no unit attached.

A selection of reference data follows.
| molecule | cytotoxic effect, HeLa |
| --- | --- |
| Cc1cn([C@H]2C[C@H](SSc3ccc([N+](=O)[O-])cc3)[C@@H](CO)O2)c(=O)[nH]c1=O | 28 |
| CCCCSS[C@H]1C[C@H](n2cc(C)c(=O)[nH]c2=O)O[C@@H]1CO [Compound 24, 3′-deoxythymidin-3′-yl butyl disulfide] | 23 |
| Cc1cn([C@H]2C[C@H](SSC(Cl)(Cl)Cl)[C@@H](CO)O2)c(=O)[nH]c1=O | 39 |

In the following, a different molecule is considered.
State cytotoxic effect, HeLa (HeLa cells) of O=c1ccn([C@@H]2O[C@H](CO)C=C2SSc2ccccc2[N+](=O)[O-])c(=O)[nH]1 .
29

###

System: FM3A/0 murine mammary carcinoma cells
Assay: Cytotoxic effect on FM3A/0 cells
Assay type: cell-based
Parameters: unit not given beside the values
Conditions: Tables 5 and 7, FM3A/0 cells
measurement label: cytotoxic effect, FM3A/0

Here's what some known entries look like.
| compound | cytotoxic effect, FM3A/0 |
| --- | --- |
| Cc1cn(C2OC(CO)C=C2SSc2ccc([N+](=O)[O-])cc2)c(=O)[nH]c1=O (stereo not drawn) [Compound 14] | 39 ± 3 |
| C=CCSS[C@H]1C[C@H](n2cc(C)c(=O)[nH]c2=O)O[C@@H]1CO [Compound 20, 3′-deoxythymidin-3′-yl allyl disulfide] | 299 ± 45 |
| CCCCSS[C@H]1C[C@H](n2cc(C)c(=O)[nH]c2=O)O[C@@H]1CO [Compound 24, 3′-deoxythymidin-3′-yl butyl disulfide] | 286 ± 24 |
| Cc1cn([C@H]2CC(SSCCCCCCO)[C@@H](CO)O2)c(=O)[nH]c1=O (stereo partly drawn) [Compound 18] | ≧500 |
| Cc1cn([C@H]2C[C@H](SSC(Cl)(Cl)Cl)[C@@H](CO)O2)c(=O)[nH]c1=O [Compound 22] | 244 ± 49 |

Quote cytotoxic effect, FM3A/0 reported for Cc1cn([C@H]2C[C@H](SSc3ccccc3[N+](=O)[O-])[C@@H](CO)O2)c(=O)[nH]c1=O [Compound 26] please.
220 ± 19

For Cc1cn([C@H]2C[C@H](SSCCN)[C@@H](CO)O2)c(=O)[nH]c1=O.Cl [Compound 27] , write its cytotoxic effect, FM3A/0.
>500

For the compound Cc1cn(C2OC(CO)C=C2SSc2ccccc2[N+](=O)[O-])c(=O)[nH]c1=O (stereo not drawn) [Compound 15] , give its measured cytotoxic effect, FM3A/0 value.
175 ± 30

Output cytotoxic effect, FM3A/0 of O=c1ccn([C@@H]2O[C@H](CO)C=C2SSc2ccc([N+](=O)[O-])cc2)c(=O)[nH]1 [Compound 16]
45 ± 2

Provide cytotoxic effect, FM3A/0 value for the following compound: Cc1cn([C@H]2C[C@H](SSc3ccc([N+](=O)[O-])cc3)[C@@H](CO)O2)c(=O)[nH]c1=O [Compound 25]
148 ± 16

Tell me its cytotoxic effect, FM3A/0 given O=c1ccn([C@@H]2O[C@H](CO)C=C2SSc2ccccc2[N+](=O)[O-])c(=O)[nH]1 [Compound 17] as the entry.
206 ± 25

Retrieve cytotoxic effect, FM3A/0 measured for Cc1cn([C@H]2C[C@H](SSCCO)[C@@H](CO)O2)c(=O)[nH]c1=O [Compound 21] and print it.
>500

###

Tested on: HeLa cells
Assay: Cytotoxic effect on HeLa cells
Assay type: cell-based
Set-up: unit not given beside the values
Details: Tables 5 and 7, HeLa cells
// reported cytotoxic effect, HeLa per item
Lab note: jot the number down without any unit.

The examples below pair each entry with its known result.
| compound | measurement label | experimental result |
| --- | --- | --- |
| Cc1cn([C@H]2C[C@H](SSc3ccccc3[N+](=O)[O-])[C@@H](CO)O2)c(=O)[nH]c1=O | cytotoxic effect, HeLa | 15 |
| Cc1cn(C2OC(CO)C=C2SSc2ccc([N+](=O)[O-])cc2)c(=O)[nH]c1=O (stereo not shown) | cytotoxic effect, HeLa | 7.4 |
| C=CCSS[C@H]1C[C@H](n2cc(C)c(=O)[nH]c2=O)O[C@@H]1CO [Compound 20, 3′-deoxythymidin-3′-yl allyl disulfide] | cytotoxic effect, HeLa | 40 |
| Cc1cn(C2OC(CO)C=C2SSc2ccccc2[N+](=O)[O-])c(=O)[nH]c1=O (stereo not shown) | cytotoxic effect, HeLa | 31 |
| O=c1ccn([C@@H]2O[C@H](CO)C=C2SSc2ccc([N+](=O)[O-])cc2)c(=O)[nH]1 | cytotoxic effect, HeLa | 16 |

// next item, cytotoxic effect, HeLa requested
Provide HeLa cells cytotoxic effect, HeLa reading for Cc1cn([C@H]2CC(SSCCCCCCO)[C@@H](CO)O2)c(=O)[nH]c1=O (stereo partly shown) .
56

###

Test system: human Molt4/C8 cells
Experiment: Cytotoxic effect on Molt4/C8 cells
Format: cell-based
Settings: Tables 5 and 7, Molt4/C8 cells
Decide by cytotoxic effect, Molt4/C8: equal to or exceeding 30 means true, less means false.

Examples from the recorded data:
| compound | classification |
| --- | --- |
| Cc1cn([C@H]2C[C@H](SSc3ccccc3[N+](=O)[O-])[C@@H](CO)O2)c(=O)[nH]c1=O [Compound 26] | true |
| O=c1ccn([C@@H]2O[C@H](CO)C=C2SSc2ccc([N+](=O)[O-])cc2)c(=O)[nH]1 [Compound 16] | false |
| Cc1cn([C@H]2C[C@H](SSCCN)[C@@H](CO)O2)c(=O)[nH]c1=O.Cl [Compound 27] | true |

Is it the case that CCCCSS[C@H]1C[C@H](n2cc(C)c(=O)[nH]c2=O)O[C@@H]1CO [Compound 24, 3′-deoxythymidin-3′-yl butyl disulfide] has cytotoxic effect, Molt4/C8 reaching or exceeding 30?
false

Can Cc1cn(C2OC(CO)C=C2SSc2ccc([N+](=O)[O-])cc2)c(=O)[nH]c1=O (stereo not shown) [Compound 14] be said to have cytotoxic effect, Molt4/C8 at or above 30?
false

Please indicate if the recorded cytotoxic effect, Molt4/C8 for O=c1ccn([C@@H]2O[C@H](CO)C=C2SSc2ccccc2[N+](=O)[O-])c(=O)[nH]1 [Compound 17] meets or exceeds 30.
true

Exam item: decide whether the reported cytotoxic effect, Molt4/C8 for Cc1cn([C@H]2C[C@H](SSC(Cl)(Cl)Cl)[C@@H](CO)O2)c(=O)[nH]c1=O [Compound 22] is at least 30.
true

###

System: HIV-2
Test: Anti-HIV-2 effect in CEM cells
Type: cell-based
Conditions: Human immunodeficiency virus 2, CCRF-CEM, First and Second Series, second table; CEM cells; read-out: EC50 HIV-2
# maps each entry to its pEC50
Formally, pEC50 is defined as -log10 of the concentration c, with c in mol/L.

| molecule | pEC50 |
| --- | --- |
| Cc1cn([C@H]2CC(SSCCCCCCO)[C@@H](CO)O2)c(=O)[nH]c1=O (some centres unmarked) | 4.93 |
| Cc1cn([C@H]2C[C@H](SSCCO)[C@@H](CO)O2)c(=O)[nH]c1=O | 4.85 |
| Cc1cn([C@H]2C[C@H](SSC(Cl)(Cl)Cl)[C@@H](CO)O2)c(=O)[nH]c1=O | 4.76 |

Tell me measured pEC50 for C=CCSS[C@H]1C[C@H](n2cc(C)c(=O)[nH]c2=O)O[C@@H]1CO [Compound 20, 3′-deoxythymidin-3′-yl allyl disulfide] please.
4.82
